Assignment: determine reported pIC50 for the given molecules.
tested-on: Indoleamine 2,3-Dioxygenase (IDO1) in SKOV-3 cells (Homo sapiens, UniProt P14902)
Construct: endogenous in cells
Sequence (P14902 whole entry): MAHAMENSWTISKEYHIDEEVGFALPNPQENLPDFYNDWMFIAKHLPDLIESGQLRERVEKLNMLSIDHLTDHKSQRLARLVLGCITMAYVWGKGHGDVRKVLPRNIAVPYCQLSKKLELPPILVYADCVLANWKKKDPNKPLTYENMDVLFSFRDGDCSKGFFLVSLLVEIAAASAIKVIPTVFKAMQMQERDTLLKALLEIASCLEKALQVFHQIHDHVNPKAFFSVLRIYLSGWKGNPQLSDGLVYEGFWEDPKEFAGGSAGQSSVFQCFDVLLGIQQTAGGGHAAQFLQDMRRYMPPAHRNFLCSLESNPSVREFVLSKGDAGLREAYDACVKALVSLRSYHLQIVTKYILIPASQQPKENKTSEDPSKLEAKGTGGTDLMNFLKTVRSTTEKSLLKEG
test: SKOV-3 cellular indoleamine 2,3-dioxygenase assay
condition-notes: 50 ng/ml Interferon gamma, 100 μM L-Tryptophan, 24 hours, N-Formylkynurenin fluorescence, read-out: cell based activity (IC50)
pIC50: −log10 of the molar value.

Lab note: `O=C(Nc1ccc(OC(F)(F)F)cc1)C(=O)N1CCC(c2ccnc3ccc(F)cc23)CC1` gave pIC50 of > 7.00

Lab note: `O=C(NC1CCC2(CC1)CC2)C(=O)N1CCC(c2ccnc3ccc(F)cc23)CC1` gave pIC50 of < 6.00

Lab note: CC(NC(=O)C(=O)N1CCC(c2ccnc3ccc(F)cc23)CC1)c1ccccc1 (centres unmarked) gave pIC50 of < 6.00

Lab note: `O=C(Nc1ccc(-c2cnccn2)cn1)C(=O)N1CCC(c2ccnc3ccc(F)cc23)CC1` gave pIC50 of 6.00 to 7.00

Lab note: O=C(Nc1ccc(Cl)cc1)C(=O)N1CC[C@@H](c2ccnc3ccc(F)cc23)[C@@H](O)C1 (single isomer, unassigned) gave pIC50 of < 6.00

Lab note: `O=C(Nc1ncc(Cl)cc1F)C(=O)N1CCC(c2ccnc3ccc(F)cc23)CC1` gave pIC50 of > 7.00

Lab note: O=C(Nc1ccc(Cl)cn1)C(=O)N1CCCC(c2ccnc3ccccc23)CC1 (centres unmarked) gave pIC50 of > 7.00

Lab note: `N#Cc1ccc(NC(=O)C(=O)N2CCC(c3ccnc4ccc(F)cc34)CC2)c(F)c1` gave pIC50 of > 7.00
